# tested.system: DPP-IV enzyme (Rattus norvegicus)
# Construct: made in house
# assay.comment: DPP-IV dipeptide (Ala-Pro-AFC) cleavage inhibition, fluorescent assay
# Format: biochemical
# measurement.setup: Table S6; Ala-Pro-AFC at 10 µM, one-hour incubation, triplicate; read-out: measured IC50's
observed.property: IC50 (nM)

chemical.smiles	unit.abbrev	IC50
CC(=O)NCCOCCOCCOCCOCCOCCOCCOCCOCCOCCOCCNC(=O)CN1CCN(C(=O)C[C@H](N)Cc2cc(F)c(F)cc2F)CC1	nM	152
CC(=O)NCCOCCOCCOCCOCCOCCOCCOCCNC(=O)CN1CCN(C(=O)C[C@H](N)Cc2cc(F)c(F)cc2F)CC1	nM	134
CC(=O)NCCOCCOCCOCCOCCOCCOCCNC(=O)CN1CCN(C(=O)C[C@H](N)Cc2cc(F)c(F)cc2F)CC1	nM	119
CC(=O)NCCOCCOCCOCCOCCOCCNC(=O)CN1CCN(C(=O)C[C@H](N)Cc2cc(F)c(F)cc2F)CC1	nM	146
CC(=O)NCCOCCOCCOCCOCCNC(=O)CN1CCN(C(=O)C[C@H](N)Cc2cc(F)c(F)cc2F)CC1	nM	100
CC(=O)NCCOCCOCCOCCOCCOCCOCCOCCOCCOCCOCCOCCNC(=O)CN1CCN(C(=O)C[C@H](N)Cc2cc(F)c(F)cc2F)CC1	nM	160
CC(=O)NCCOCCOCCOCCOCCOCCOCCOCCOCCNC(=O)CN1CCN(C(=O)C[C@H](N)Cc2cc(F)c(F)cc2F)CC1	nM	124
CC(=O)NCCOCCOCCOCCNC(=O)CN1CCN(C(=O)C[C@H](N)Cc2cc(F)c(F)cc2F)CC1	nM	141

###

# tested.system: DPP-IV enzyme (Rattus norvegicus, UniProt P14740)
# Construct: made in house
# Sequence (P14740 whole entry): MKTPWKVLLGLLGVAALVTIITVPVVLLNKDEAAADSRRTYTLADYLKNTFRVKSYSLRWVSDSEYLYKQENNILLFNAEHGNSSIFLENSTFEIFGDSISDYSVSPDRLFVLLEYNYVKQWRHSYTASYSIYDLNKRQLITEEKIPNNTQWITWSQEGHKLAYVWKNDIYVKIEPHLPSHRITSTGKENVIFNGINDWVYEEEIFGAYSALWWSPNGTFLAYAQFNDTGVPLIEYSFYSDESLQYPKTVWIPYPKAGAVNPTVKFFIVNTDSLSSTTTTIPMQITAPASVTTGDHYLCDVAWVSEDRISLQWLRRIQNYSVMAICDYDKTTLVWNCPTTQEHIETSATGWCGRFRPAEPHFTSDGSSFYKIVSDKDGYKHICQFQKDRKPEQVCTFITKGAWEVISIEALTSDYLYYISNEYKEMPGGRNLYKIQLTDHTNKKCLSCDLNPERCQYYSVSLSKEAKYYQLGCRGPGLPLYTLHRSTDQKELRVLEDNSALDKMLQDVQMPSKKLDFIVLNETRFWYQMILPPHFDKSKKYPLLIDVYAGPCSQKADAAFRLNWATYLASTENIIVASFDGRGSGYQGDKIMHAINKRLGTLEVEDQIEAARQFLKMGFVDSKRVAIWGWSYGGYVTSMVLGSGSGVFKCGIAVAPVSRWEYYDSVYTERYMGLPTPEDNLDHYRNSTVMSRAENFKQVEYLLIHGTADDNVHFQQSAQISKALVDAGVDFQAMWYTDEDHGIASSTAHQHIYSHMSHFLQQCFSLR
# assay.comment: DPP-IV dipeptide (Ala-Pro-AFC) cleavage inhibition, fluorescent assay
# Format: biochemical
# measurement.setup: dipeptide substrate cleavage; read-out: DPP-IV IC50
pIC50: −log10 of the molar value.
observed.property: pIC50

chemical.smiles	pIC50
COCCOCCOCCOCCNC(=O)CN1CCN(C(=O)C[C@H](N)Cc2cc(F)c(F)cc2F)CC1	6.98

A. COCCOCCOCCOCCOCCOCCOCCOCCNC(=O)CN1CCN(C(=O)C[C@H](N)Cc2cc(F)c(F)cc2F)CC1
B. CNC(=O)CN1CCN(C(=O)C[C@H](N)Cc2cc(F)c(F)cc2F)CC1.Cl
Which gives the smaller pIC50 number: A or B ? // respond with label for picked entry
B
(B: 6.89, A: 7.15)

Reference source for all entries: paper PMC5954141
